TARGET_OR_SYSTEM: DPP-4 (Mus musculus, UniProt P28843)
Construct: Blood sample was processed to obtain plasma; from tissue; host or cells: plasma of male ICR mice
Sequence (P28843 37-760 limits assumed): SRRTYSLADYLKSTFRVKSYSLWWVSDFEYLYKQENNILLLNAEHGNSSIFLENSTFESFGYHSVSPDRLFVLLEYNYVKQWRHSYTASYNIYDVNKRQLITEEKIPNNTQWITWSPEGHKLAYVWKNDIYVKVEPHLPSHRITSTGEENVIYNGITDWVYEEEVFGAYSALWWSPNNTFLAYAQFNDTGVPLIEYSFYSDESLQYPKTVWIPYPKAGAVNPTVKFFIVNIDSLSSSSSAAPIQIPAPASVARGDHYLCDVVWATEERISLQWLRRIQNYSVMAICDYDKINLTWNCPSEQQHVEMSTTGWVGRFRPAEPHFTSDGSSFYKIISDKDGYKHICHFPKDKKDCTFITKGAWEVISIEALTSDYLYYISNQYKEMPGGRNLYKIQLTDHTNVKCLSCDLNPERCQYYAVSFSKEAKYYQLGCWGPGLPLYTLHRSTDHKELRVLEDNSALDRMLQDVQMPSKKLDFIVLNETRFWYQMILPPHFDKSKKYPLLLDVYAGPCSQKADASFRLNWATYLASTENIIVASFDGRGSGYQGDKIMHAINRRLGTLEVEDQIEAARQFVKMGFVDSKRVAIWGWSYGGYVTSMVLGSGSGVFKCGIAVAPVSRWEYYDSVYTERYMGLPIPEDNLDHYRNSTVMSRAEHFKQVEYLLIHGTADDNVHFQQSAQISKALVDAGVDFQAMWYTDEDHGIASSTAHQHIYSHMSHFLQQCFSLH
EXPERIMENT: Plasma DPP-4 activity in mice after oral dosing
Assay type: in vivo, ICR mice
TEST_CONTEXT: Table 4 Test 2, mice plasma, oral 1 mg/kg, 6 h after dosing, read-out: DPP-4 Relative activity %
ASSAY_METRIC: activity at 1 mg/kg

Field: example entries. Status: answers known.
NC(=O)c1ccn2c3c(nc2c1)C[C@H](c1cc(F)c(F)cc1F)[C@@H](N)C3 [Refference 1, reference compound]
23.3%
Cc1nc(-c2ccn3c4c(nc3c2)C[C@H](c2cc(F)c(F)cc2F)[C@@H](N)C4)no1
10.4%
Cc1nnc(-c2ccn3c4c(nc3c2)C[C@H](c2cc(F)c(F)cc2F)[C@@H](N)C4)o1
9.6%

Query: Reported activity at 1 mg/kg for DPP-4 (Mus musculus, UniProt P28843), given `N[C@H]1Cc2c(nc3cc(-c4ncon4)ccn23)C[C@@H]1c1cc(F)c(F)cc1F` ?
Result: 13.8%

====

TARGET_OR_SYSTEM: DPP-4 (Mus musculus, UniProt P28843)
Construct: Blood sample was processed to obtain plasma; from tissue; host or cells: plasma of male ICR mice
EXPERIMENT: Plasma DPP-4 activity in mice after oral dosing
Type: in vivo, ICR mice
TEST_CONTEXT: Table 4 Test 3, mice plasma, oral 1 mg/kg, 24 h after dosing, read-out: DPP-4 Relative activity %
ASSAY_METRIC: activity at 1 mg/kg (%)
// return numeric value only (unit: %, not printed)

Field: example entries. Status: answers known.
N[C@H]1Cc2c(nc3cc(-c4n[nH]c(=O)o4)ccn23)C[C@@H]1c1cc(F)c(F)cc1F
38.3
Cn1nc(-c2ccn3c4c(nc3c2)C[C@H](c2cc(F)c(F)cc2F)[C@@H](N)C4)oc1=O
20.2
N[C@H]1Cc2c(nc3cc(-c4nnco4)ccn23)C[C@@H]1c1cc(F)c(F)cc1F
14.4

# ---- query compound ----
Query: Given NC(=O)c1ccn2c3c(nc2c1)C[C@H](c1cc(F)c(F)cc1F)[C@@H](N)C3 [Refference 1, reference compound] , state its recorded activity at 1 mg/kg.
Result: 81.9

====

Recorded measurements of activity at 3 mg/kg, one per entry
TARGET_OR_SYSTEM: DPP-4 (Mus musculus)
Construct: Blood sample was processed to obtain plasma; from tissue; host or cells: plasma of male ICR mice
EXPERIMENT: Plasma DPP-4 activity in mice after oral dosing
Format: in vivo, ICR mice
TEST_CONTEXT: mice plasma, oral 3 mg/kg, 1 h after dosing, read-out: DPP-4 Relative activity %
// return numeric value only (unit: %, not printed)

Cc1nnc(-c2ccn3c4c(nc3c2)C[C@H](c2cc(F)c(F)cc2F)[C@@H](N)C4)o1
17
N[C@H]1Cc2c(nc3cc(-c4ncon4)ccn23)C[C@@H]1c1cc(F)c(F)cc1F
16
Cc1nc(-c2ccn3c4c(nc3c2)C[C@H](c2cc(F)c(F)cc2F)[C@@H](N)C4)no1
24.4

# ---- query molecule ----
Query: Given `N[C@H]1Cc2c(nc3cc(-c4nnco4)ccn23)C[C@@H]1c1cc(F)c(F)cc1F` , state its recorded activity at 3 mg/kg.
Result: 38.7

====

TARGET_OR_SYSTEM: DPP-4 (Mus musculus)
Construct: Blood sample was processed to obtain plasma; from tissue; host or cells: plasma of male ICR mice
EXPERIMENT: Plasma DPP-4 activity in mice after oral dosing
Format: in vivo, ICR mice
TEST_CONTEXT: Table 4 Test 3, mice plasma, oral 1 mg/kg, 6 h after dosing, read-out: DPP-4 Relative activity %
Recorded measurements of activity at 1 mg/kg, one per entry
// return numeric value only (unit: %, not printed)

Cn1nc(-c2ccn3c4c(nc3c2)C[C@H](c2cc(F)c(F)cc2F)[C@@H](N)C4)oc1=O
4.4
N[C@H]1Cc2c(nc3cc(-c4nnco4)ccn23)C[C@@H]1c1cc(F)c(F)cc1F
8.4
N[C@H]1Cc2c(nc3cc(-c4n[nH]c(=O)o4)ccn23)C[C@@H]1c1cc(F)c(F)cc1F
10.5

Query: Given NC(=O)c1ccn2c3c(nc2c1)C[C@H](c1cc(F)c(F)cc1F)[C@@H](N)C3 [Refference 1, reference compound] , state its recorded activity at 1 mg/kg.
Result: 33.2

====

TARGET_OR_SYSTEM: DPP-4 (Mus musculus)
Construct: Blood sample was processed to obtain plasma; from tissue; host or cells: plasma of male ICR mice
EXPERIMENT: Plasma DPP-4 activity in mice after oral dosing
Assay type: in vivo, ICR mice
TEST_CONTEXT: Table 4 Test 2, mice plasma, oral 1 mg/kg, 4 h after dosing, read-out: DPP-4 Relative activity %
ASSAY_METRIC: activity at 1 mg/kg (%)
// return numeric value only (unit: %, not printed)

Field: example entries. Status: answers known.
N[C@H]1Cc2c(nc3cc(-c4ncon4)ccn23)C[C@@H]1c1cc(F)c(F)cc1F
8.6
Cc1nc(-c2ccn3c4c(nc3c2)C[C@H](c2cc(F)c(F)cc2F)[C@@H](N)C4)no1
10.2
Cc1nnc(-c2ccn3c4c(nc3c2)C[C@H](c2cc(F)c(F)cc2F)[C@@H](N)C4)o1
7.7

# ---- query compound ----
Query: Given NC(=O)c1ccn2c3c(nc2c1)C[C@H](c1cc(F)c(F)cc1F)[C@@H](N)C3 [Refference 1, reference compound] , state its recorded activity at 1 mg/kg.
Result: 14.9

====

Recorded measurements of activity at 1 mg/kg, one per entry
TARGET_OR_SYSTEM: DPP-4 (Mus musculus, UniProt P28843)
Construct: Blood sample was processed to obtain plasma; from tissue; host or cells: plasma of male ICR mice
EXPERIMENT: Plasma DPP-4 activity in mice after oral dosing
Type: in vivo, ICR mice
TEST_CONTEXT: Table 4 Test 2, mice plasma, oral 1 mg/kg, 2 h after dosing, read-out: DPP-4 Relative activity %
// return numeric value only (unit: %, not printed)

Cc1nc(-c2ccn3c4c(nc3c2)C[C@H](c2cc(F)c(F)cc2F)[C@@H](N)C4)no1 [Example 4]
9

Query: Given NC(=O)c1ccn2c3c(nc2c1)C[C@H](c1cc(F)c(F)cc1F)[C@@H](N)C3 [Refference 1, reference compound] , state its recorded activity at 1 mg/kg.
Result: 16.5

Query: Now consider N[C@H]1Cc2c(nc3cc(-c4ncon4)ccn23)C[C@@H]1c1cc(F)c(F)cc1F [Example 3] .
Result: 13.6

Query: Now consider Cc1nnc(-c2ccn3c4c(nc3c2)C[C@H](c2cc(F)c(F)cc2F)[C@@H](N)C4)o1 [Example 2] .
Result: 11.6

====

TARGET_OR_SYSTEM: DPP-4 (Mus musculus)
Construct: Blood sample was processed to obtain plasma; from tissue; host or cells: plasma of male ICR mice
EXPERIMENT: Plasma DPP-4 activity in mice after oral dosing
Type: in vivo, ICR mice
TEST_CONTEXT: mice plasma, oral 3 mg/kg, 5 h after dosing, read-out: DPP-4 Relative activity %
ASSAY_METRIC: activity at 3 mg/kg (%)
// return numeric value only (unit: %, not printed)

N[C@H]1Cc2c(nc3cc(-c4ncon4)ccn23)C[C@@H]1c1cc(F)c(F)cc1F
26.5
Cc1nc(-c2ccn3c4c(nc3c2)C[C@H](c2cc(F)c(F)cc2F)[C@@H](N)C4)no1
28.3
Cc1nnc(-c2ccn3c4c(nc3c2)C[C@H](c2cc(F)c(F)cc2F)[C@@H](N)C4)o1
25.9

Query: Reported activity at 3 mg/kg for DPP-4 (Mus musculus), given `N[C@H]1Cc2c(nc3cc(-c4nnco4)ccn23)C[C@@H]1c1cc(F)c(F)cc1F` ?
Result: 39.2

====

TARGET_OR_SYSTEM: Recombinant human DPP-IV (Homo sapiens, UniProt P27487)
Sequence (P27487 whole entry): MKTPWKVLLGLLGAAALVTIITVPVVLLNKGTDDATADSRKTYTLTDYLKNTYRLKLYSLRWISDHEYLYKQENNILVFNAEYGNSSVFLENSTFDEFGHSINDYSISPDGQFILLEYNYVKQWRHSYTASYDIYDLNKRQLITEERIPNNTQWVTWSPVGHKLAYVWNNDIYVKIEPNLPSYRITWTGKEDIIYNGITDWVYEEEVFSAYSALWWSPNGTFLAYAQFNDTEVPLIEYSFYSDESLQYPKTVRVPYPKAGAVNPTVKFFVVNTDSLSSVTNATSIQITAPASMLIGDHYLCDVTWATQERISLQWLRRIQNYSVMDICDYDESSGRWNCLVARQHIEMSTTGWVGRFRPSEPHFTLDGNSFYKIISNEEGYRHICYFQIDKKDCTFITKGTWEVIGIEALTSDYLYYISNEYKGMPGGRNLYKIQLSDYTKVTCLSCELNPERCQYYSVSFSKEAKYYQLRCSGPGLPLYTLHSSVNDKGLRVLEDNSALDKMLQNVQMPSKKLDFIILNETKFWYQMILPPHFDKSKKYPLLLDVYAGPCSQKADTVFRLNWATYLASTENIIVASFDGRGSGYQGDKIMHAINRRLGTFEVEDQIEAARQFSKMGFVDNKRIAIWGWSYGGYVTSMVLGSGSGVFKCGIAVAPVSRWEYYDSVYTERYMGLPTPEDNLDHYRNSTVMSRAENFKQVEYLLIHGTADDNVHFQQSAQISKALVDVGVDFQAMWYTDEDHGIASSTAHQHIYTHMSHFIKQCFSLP
EXPERIMENT: DPP-IV assay in vitro (H-Ala-Pro-AFC fluorescence)
TEST_CONTEXT: 30 min pre-incubation, H-Ala-Pro-AFC 50 μM
Recorded measurements of pIC50, one per entry
// field semantics: pIC50 = negative decimal log of concentration (mol/L)

Field: example entries. Status: answers known.
Cc1noc(-c2ccn3c4c(nc3c2)C[C@H](c2cc(F)c(F)cc2F)[C@@H](N)C4)n1 [Example 6]
8.72
Cn1ncnc1-c1ccn2c3c(nc2c1)C[C@H](c1cc(F)c(F)cc1F)[C@@H](N)C3 [Example 9]
8.70
N[C@H]1Cc2c(nc3cc(-c4ncno4)ccn23)C[C@@H]1c1cc(F)c(F)cc1F [Example 5]
9.00

Query: Given N[C@H]1Cc2c(nc3cc(-c4nnco4)ccn23)C[C@@H]1c1cc(F)c(F)cc1F [Example 1] , state its recorded pIC50.
Result: 9.10

Query: Now consider N[C@H]1Cc2c(nc3cc(-c4nc[nH]n4)ccn23)C[C@@H]1c1cc(F)c(F)cc1F [Example 7] .
Result: 9.05

Query: Now consider N[C@H]1Cc2c(nc3cc(-c4ncon4)ccn23)C[C@@H]1c1cc(F)c(F)cc1F [Example 3] .
Result: 8.77

Query: Now consider Cn1nnc(-c2ccn3c4c(nc3c2)C[C@H](c2cc(F)c(F)cc2F)[C@@H](N)C4)n1 [Example 11] .
Result: 8.52

Query: Now consider N[C@H]1Cc2c(nc3cc(-c4nnn[nH]4)ccn23)C[C@@H]1c1cc(F)c(F)cc1F [Example 10] .
Result: 9.22

Query: Now consider Cc1n[nH]c(-c2ccn3c4c(nc3c2)C[C@H](c2cc(F)c(F)cc2F)[C@@H](N)C4)n1 [Example 8] .
Result: 8.77

Query: Now consider Cc1nc(-c2ccn3c4c(nc3c2)C[C@H](c2cc(F)c(F)cc2F)[C@@H](N)C4)no1 [Example 4] .
Result: 8.72

Query: Now consider Cc1nnc(-c2ccn3c4c(nc3c2)C[C@H](c2cc(F)c(F)cc2F)[C@@H](N)C4)o1 [Example 2] .
Result: 8.92

Values compiled from patent US20150284385A1.
